Data origin, for the record: ChEMBL document CHEMBL4004826

- Tgt: Peptidyl-prolyl cis-trans isomerase F, mitochondrial (Mus musculus) (UniProt Q99KR7)
- Sequence (Q99KR7 whole entry): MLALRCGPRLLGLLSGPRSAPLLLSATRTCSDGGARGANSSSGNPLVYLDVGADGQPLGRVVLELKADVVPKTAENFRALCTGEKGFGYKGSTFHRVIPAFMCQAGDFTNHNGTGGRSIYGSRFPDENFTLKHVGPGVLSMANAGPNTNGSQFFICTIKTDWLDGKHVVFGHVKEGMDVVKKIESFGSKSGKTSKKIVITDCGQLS
- Test method notes: Inhibition of cyclophilin D in mouse HT22 cells assessed as reduction in amyloid beta (1 to 42) induced mitochondrial permeability transition pore opening by measuring increase in green to red fluorescence ratio at 5 uM pretreated for 10 mins followed by amyloid beta (1 to 42) stimulation measured at 1 hr interval for 3 hrs by JC-1 dye based fluorescence assay relative to control
- Assay type: cell-based
- Parameters: scale not given: the % may be the effect or the level left
Answer each item with its documented Activity.
Give bare numbers, in %.

Known results for compounds:
O=C(Nc1ncccc1OCc1ccc(Cl)cc1)NC1CCCCCC1 = 19
CC(C)(C)NC(=O)Nc1ncccc1OCc1cccc(Cl)c1 = 176
O=C(Nc1ncccc1OCc1cccc(Cl)c1)NC1CCCCCC1 = 46
CC(C)(C)CC(C)(C)NC(=O)Nc1ncccc1OCc1cccc(F)c1 = 31
CCNC(=O)Nc1ncccc1OCc1ccc(Cl)cc1 = 94
CCNC(=O)Nc1ncccc1OCc1ccc(F)cc1 = 127
CC(C)(C)NC(=O)Nc1ncccc1OCc1cccc(F)c1 = 44
O=C(NCCCl)Nc1ncccc1OCc1ccc(Cl)cc1 = 131

Q: Suppose we examine the compound CC(C)(C)NC(=O)Nc1ncccc1OCc1ccc(Cl)cc1 ; what Activity value has been reported?
A: 35

====

- Tgt: Peptidyl-prolyl cis-trans isomerase F, mitochondrial (Mus musculus)
- Test method notes: Inhibition of cyclophilin D in mouse HT22 cells assessed as reduction in amyloid beta (1 to 42) induced mitochondrial permeability transition pore opening by measuring increase in green to red fluorescence ratio at 5 uM pretreated for 10 mins followed by amyloid beta (1 to 42) stimulation measured at 1 hr interval for 3 hrs by JC-1 dye based fluorescence assay relative to control
- Type: cell-based
- Set-up: scale not given: the % may be the effect or the level left
Readout type: Activity (%)
One number for each entry, in %.

Known results for compounds:
CCNC(=O)Nc1ncccc1OCc1cccc(F)c1 = 14
O=C(NCCCl)Nc1ncccc1OCc1ccc(F)cc1 = 64
O=C(Nc1ncccc1OCc1ccccc1)NC1CCCCCC1 = 130

Read the next record carefully.
Q: Suppose we examine the compound CCNC(=O)Nc1ncccc1OCc1ccccc1Cl ; what Activity value has been reported?
A: 49

====

Answer each item with its documented Activity.
- Tgt: Peptidyl-prolyl cis-trans isomerase F, mitochondrial (Mus musculus)
- Test method notes: Inhibition of Cyclophilin D in mouse HT22 cells assessed as neuroprotective activity against amyloid beta (1 to 42) induced impairment of ATP production by measuring cell viability at 5 pretreated for 10 mins followed by amyloid beta (1 to 42) stimulation measured after 7 hrs by luciferase based assay relative to control
One number for each entry, in %.

Known results for compounds:
O=C(Nc1ncccc1OCc1ccc(F)cc1)NC1CCCCCC1 = 99
CC(C)(C)NC(=O)Nc1ncccc1OCc1ccccc1 = 103
CC(C)(C)CC(C)(C)NC(=O)Nc1ncccc1OCc1cccc(F)c1 = 30

Read the next record carefully.
Q: Short answer please: Activity, Peptidyl-prolyl cis-trans isomerase F, mitochondrial (Mus musculus), entry CCNC(=O)Nc1ncccc1OCc1cccc(F)c1
A: 102

====

Answer each item with its documented fold change (FC).
- Tested on: N2a
- Test method notes: Induction of reactive oxygen species production in mouse Neuro2a cells assessed as H2O2 level at 10 uM after 6 hrs by ROS-Glo luminescence assay relative to control
- Assay type: cell-based
Numbers only.

CC(C)(C)CC(C)(C)NC(=O)Nc1ncccc1OCc1cccc(F)c1 = 1.02
CC1=CC(=O)c2ccccc2C1=O = 6.94
CCNC(=O)Nc1ncccc1OCc1cccc(F)c1 = 1.14

Read the next record carefully.
Q: Suppose we examine the compound CC(C)(C)NC(=O)Nc1ncccc1OCc1ccc(Cl)cc1 ; what fold change (FC) value has been reported?
A: 0.91
